target: IKZF2 (Helios) (Homo sapiens (Human), UniProt Q96SW2+Q9UKS7); test: Prolabel quantification of IKZF2 protein levels in 293GT cells; conditions: read-out: IKZF2 EC50; Pro-label assay, 293GT cells, degradation
Sequence (Q9UKS7 whole entry): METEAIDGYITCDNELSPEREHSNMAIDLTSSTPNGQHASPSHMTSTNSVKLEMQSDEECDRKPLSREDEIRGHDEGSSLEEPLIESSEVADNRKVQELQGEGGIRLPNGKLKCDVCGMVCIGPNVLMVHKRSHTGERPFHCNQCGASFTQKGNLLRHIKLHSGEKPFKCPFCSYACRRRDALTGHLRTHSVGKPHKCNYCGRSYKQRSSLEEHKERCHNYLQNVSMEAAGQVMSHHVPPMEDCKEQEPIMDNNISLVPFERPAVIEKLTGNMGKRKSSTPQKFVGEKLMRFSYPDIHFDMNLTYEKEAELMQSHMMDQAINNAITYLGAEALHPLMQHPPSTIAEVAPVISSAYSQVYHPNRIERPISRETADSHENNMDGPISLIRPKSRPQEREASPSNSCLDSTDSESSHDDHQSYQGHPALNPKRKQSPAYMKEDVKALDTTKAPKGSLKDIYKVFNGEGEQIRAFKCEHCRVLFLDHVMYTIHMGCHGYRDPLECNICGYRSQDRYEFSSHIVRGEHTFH
Sequence (Q96SW2 whole entry): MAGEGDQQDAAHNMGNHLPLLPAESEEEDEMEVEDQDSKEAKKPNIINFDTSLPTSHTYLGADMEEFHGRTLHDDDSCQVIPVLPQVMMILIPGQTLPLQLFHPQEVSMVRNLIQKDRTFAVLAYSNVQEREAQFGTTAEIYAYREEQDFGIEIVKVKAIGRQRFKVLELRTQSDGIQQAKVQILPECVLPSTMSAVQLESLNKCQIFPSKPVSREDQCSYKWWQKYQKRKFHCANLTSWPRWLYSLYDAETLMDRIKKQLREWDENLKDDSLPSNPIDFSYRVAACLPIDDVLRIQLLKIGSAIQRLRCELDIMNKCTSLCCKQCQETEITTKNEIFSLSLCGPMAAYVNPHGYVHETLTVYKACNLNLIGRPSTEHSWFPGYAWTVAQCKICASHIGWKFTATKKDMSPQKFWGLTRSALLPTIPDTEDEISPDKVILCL
Sequence (Q16531 whole entry partner): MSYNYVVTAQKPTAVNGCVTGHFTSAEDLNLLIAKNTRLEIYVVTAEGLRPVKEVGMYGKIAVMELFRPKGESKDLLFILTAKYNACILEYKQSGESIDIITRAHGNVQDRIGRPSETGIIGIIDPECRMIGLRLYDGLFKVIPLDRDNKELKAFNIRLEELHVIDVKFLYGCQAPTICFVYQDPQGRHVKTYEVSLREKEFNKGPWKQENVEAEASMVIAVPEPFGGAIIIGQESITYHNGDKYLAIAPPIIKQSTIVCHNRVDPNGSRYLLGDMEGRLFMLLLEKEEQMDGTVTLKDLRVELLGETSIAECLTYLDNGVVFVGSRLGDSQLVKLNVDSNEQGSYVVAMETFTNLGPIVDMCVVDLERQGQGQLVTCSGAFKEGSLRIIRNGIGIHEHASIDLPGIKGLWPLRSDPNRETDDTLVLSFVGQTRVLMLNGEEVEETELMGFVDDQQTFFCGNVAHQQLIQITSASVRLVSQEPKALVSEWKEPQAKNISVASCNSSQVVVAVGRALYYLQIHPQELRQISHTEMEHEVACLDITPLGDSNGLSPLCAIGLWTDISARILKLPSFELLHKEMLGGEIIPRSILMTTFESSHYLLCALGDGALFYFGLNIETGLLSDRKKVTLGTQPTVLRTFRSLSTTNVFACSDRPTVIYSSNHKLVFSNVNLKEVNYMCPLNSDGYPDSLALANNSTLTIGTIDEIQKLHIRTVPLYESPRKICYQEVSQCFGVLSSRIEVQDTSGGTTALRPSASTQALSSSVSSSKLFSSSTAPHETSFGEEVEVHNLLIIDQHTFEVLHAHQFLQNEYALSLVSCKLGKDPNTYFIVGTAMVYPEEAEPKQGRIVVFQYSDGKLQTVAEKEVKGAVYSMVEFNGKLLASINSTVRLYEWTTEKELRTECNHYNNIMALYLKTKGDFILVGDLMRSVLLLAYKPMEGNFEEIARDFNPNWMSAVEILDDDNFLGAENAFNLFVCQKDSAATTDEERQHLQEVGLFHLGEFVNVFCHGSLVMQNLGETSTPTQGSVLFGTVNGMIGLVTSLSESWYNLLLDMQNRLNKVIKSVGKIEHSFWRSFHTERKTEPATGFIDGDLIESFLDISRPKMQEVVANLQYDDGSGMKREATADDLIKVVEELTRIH
measurement_label: EC50

Lookup: Which EC50 reading was recorded for the compound CC(C)CN[C@H]1CCCC[C@@H]1Nc1ccc2c(c1)CN(C1CCC(=O)NC1=O)C2=O (stereo partly shown) ?
Found: 0.94 µM

These entries and their values trace back to patent US11185537B2.
